From: patent US20170037111A1

- measurement_target: HLA-A*02:01 (Homo sapiens, UniProt P04439, D140Y/D185E/D98H/E176V/E277Q/G131W/G231S/I119V/I121R/I166T/I218V/L300P/L318F/N151K/N90K/P208A/P217A/Q86G/Q94H/R138H/R169H/T345S)
- assay_protocol: MHC binding assay (UV-ligand exchange, β2m ELISA, peptide exchange yield)
- applied_conditions: MHC class I binding score; binding to HLA-A*02:01 ranged by peptide exchange yield (UV-ligand exchange, β2m ELISA)

substance: 168 (KILDADIQL; listed as Homo sapiens) [compound 168]
Peptide exchange: ″++++″ (≧75% = ++++)

substance: 144 (YIMEPSIFNTL; listed as Homo sapiens) [compound 144]
Peptide exchange: ″+++″ (≧50% = +++)

substance: 28 (QLLDETSAITL; listed as Homo sapiens) [compound 28]
Peptide exchange: ″+++″ (≧50% = +++)

substance: 195 (GLFADLLPRL; listed as Homo sapiens) [compound 195]
Peptide exchange: ″+++″ (≧50% = +++)

substance: 70 (GLLDYPVGV; listed as Homo sapiens) [compound 70]
Peptide exchange: ″+++″ (≧50% = +++)

substance: 430 (HLYSSIEHLTT; listed as Homo sapiens) [compound 430]
Peptide exchange: ″+++″ (≧50% = +++)

substance: 131 (FVPPVTVFPSL; listed as Homo sapiens) [compound 131]
Peptide exchange: ″++″ (≧20% = ++)

substance: 263 (LLVSNLDFGV; listed as Homo sapiens) [compound 263]
Peptide exchange: ″+++″ (≧50% = +++)

substance: 308 (SQYSGQLHEV; listed as Homo sapiens) [compound 308]
Peptide exchange: ″+++″ (≧50% = +++)

substance: 330 (QLALKVEGV; listed as Homo sapiens) [compound 330]
Peptide exchange: ″+++″ (≧50% = +++)

substance: 320 (KMFEFVEPLL; listed as Homo sapiens) [compound 320]
Peptide exchange: ″++++″ (≧75% = ++++)

substance: 382 (ALQNYIKEA; listed as Homo sapiens) [compound 382]
Peptide exchange: ″++″ (≧20% = ++)

substance: 569 (KLVDRTWTL; listed as Homo sapiens) [compound 569]
Peptide exchange: ″+++″ (≧50% = +++)

substance: 212 (ALWDQDNLSV; listed as Homo sapiens) [compound 212]
Peptide exchange: ″++″ (≧20% = ++)

substance: 233 (VLSETLYEL; listed as Homo sapiens) [compound 233]
Peptide exchange: ″++″ (≧20% = ++)

substance: 299 (YLLETSGNL; listed as Homo sapiens) [compound 299]
Peptide exchange: ″+++″ (≧50% = +++)

substance: 426 (RLADKSVLV; listed as Homo sapiens) [compound 426]
Peptide exchange: ″+++″ (≧50% = +++)

substance: 246 (LLWEVVSQL; listed as Homo sapiens) [compound 246]
Peptide exchange: ″+++″ (≧50% = +++)

substance: 512 (SLSEIVPCL; listed as Homo sapiens) [compound 512]
Peptide exchange: ″+++″ (≧50% = +++)

substance: 347 (SLFKHDPAAWEA; listed as Homo sapiens) [compound 347]
Peptide exchange: ″++++″ (≧75% = ++++)

substance: 528 (SVAEGRALMSV; listed as Homo sapiens) [compound 528]
Peptide exchange: ″+++″ (≧50% = +++)

substance: 68 (SLMELPRGLFL; listed as Homo sapiens) [compound 68]
Peptide exchange: ″++++″ (≧75% = ++++)

substance: 79 (SLFIGEKAVLL; listed as Homo sapiens) [compound 79]
Peptide exchange: ″+++″ (≧50% = +++)

substance: 81 (FLFSQLQYL; listed as Homo sapiens) [compound 81]
Peptide exchange: ″++″ (≧20% = ++)

substance: 571 (LLLTTIPQI; listed as Homo sapiens) [compound 571]
Peptide exchange: ″+++″ (≧50% = +++)

substance: 224 (TLIDAQWVL; listed as Homo sapiens) [compound 224]
Peptide exchange: ″+++″ (≧50% = +++)

substance: 372 (TMLLNIPLV; listed as Homo sapiens) [compound 372]
Peptide exchange: ″++″ (≧20% = ++)

substance: 597 (KLLEGQVIQL; listed as Homo sapiens) [compound 597]
Peptide exchange: ″+++″ (≧50% = +++)

substance: 205 (SLYPGTETMGL; listed as Homo sapiens) [compound 205]
Peptide exchange: ″+++″ (≧50% = +++)

substance: 34 (ILVEADSLWVV; listed as Homo sapiens) [compound 34]
Peptide exchange: ″+++″ (≧50% = +++)

substance: 190 (FLSSLTETI; listed as Homo sapiens) [compound 190]
Peptide exchange: ″+++″ (≧50% = +++)

substance: 276 (ALFTFSPLTV; listed as Homo sapiens) [compound 276]
Peptide exchange: ″+++″ (≧50% = +++)

substance: 590 (SLIEKLWQT; listed as Homo sapiens) [compound 590]
Peptide exchange: ″++″ (≧20% = ++)

substance: 257 (SIFSAFLSV; listed as Homo sapiens) [compound 257]
Peptide exchange: ″+++″ (≧50% = +++)

substance: 586 (KLKPGDLVGV; listed as Homo sapiens) [compound 586]
Peptide exchange: ″+++″ (≧50% = +++)

substance: 376 (AMFESSQNVLL; listed as Homo sapiens) [compound 376]
Peptide exchange: ″++″ (≧20% = ++)

substance: 548 (ALWENPESGEL; listed as Homo sapiens) [compound 548]
Peptide exchange: ″++″ (≧20% = ++)

substance: 197 (ALGPEGGRV; listed as Homo sapiens) [compound 197]
Peptide exchange: ″++″ (≧20% = ++)

====

- measurement_target: HLA-A*02:01 (Homo sapiens, UniProt P04439, D140Y/D185E/D98H/E176V/E277Q/G131W/G231S/I119V/I121R/I166T/I218V/L300P/L318F/N151K/N90K/P208A/P217A/Q86G/Q94H/R138H/R169H/T345S)
- assay_protocol: MHC binding assay (UV-ligand exchange, β2m ELISA, peptide exchange yield)
- applied_conditions: MHC class I binding score; binding to HLA-A*02:01 ranged by peptide exchange yield (UV-ligand exchange, β2m ELISA)

substance: 250 (ALSEEGLLVYL; listed as Homo sapiens) [compound 250]
Peptide exchange: ″+++″ (≧50% = +++)
--
substance: 300 (ALLGQTFSL; listed as Homo sapiens) [compound 300]
Peptide exchange: ″+++″ (≧50% = +++)
--
substance: 235 (YLNDLHEVLL; listed as Homo sapiens) [compound 235]
Peptide exchange: ″++++″ (≧75% = ++++)
--
substance: 576 (ILLNNSGQIKL; listed as Homo sapiens) [compound 576]
Peptide exchange: ″++++″ (≧75% = ++++)
--
substance: 587 (VMNDRLYAI; listed as Homo sapiens) [compound 587]
Peptide exchange: ″+++″ (≧50% = +++)
--
substance: 394 (LLAVIGGLVYL; listed as Homo sapiens) [compound 394]
Peptide exchange: ″+++″ (≧50% = +++)
--
substance: 181 (LLWAGTAFQV; listed as Homo sapiens) [compound 181]
Peptide exchange: ″+++″ (≧50% = +++)
--
substance: 441 (ALLENPKMEL; listed as Homo sapiens) [compound 441]
Peptide exchange: ″+++″ (≧50% = +++)

====

- measurement_target: HLA-A*02:01 (Homo sapiens, UniProt P04439, D140Y/D185E/D98H/E176V/E277Q/G131W/G231S/I119V/I121R/I166T/I218V/L300P/L318F/N151K/N90K/P208A/P217A/Q86G/Q94H/R138H/R169H/T345S)
- assay_protocol: MHC binding assay (UV-ligand exchange, β2m ELISA, peptide exchange yield)
- applied_conditions: MHC class I binding score; binding to HLA-A*02:01 ranged by peptide exchange yield (UV-ligand exchange, β2m ELISA)
endpoint_label: Peptide exchange

substance: 71 (GILARIASV; listed as Homo sapiens) [compound 71]
measured_value: ″+++″ (≧50% = +++)

substance: 191 (LLQEGQALEYV; listed as Homo sapiens) [compound 191]
measured_value: ″++″ (≧20% = ++)

substance: 332 (YLISELEAA; listed as Homo sapiens) [compound 332]
measured_value: ″+++″ (≧50% = +++)

substance: 573 (ILVANAIVGV; listed as Homo sapiens) [compound 573]
measured_value: ″+++″ (≧50% = +++)

substance: 252 (LLIGTDVSL; listed as Homo sapiens) [compound 252]
measured_value: ″+++″ (≧50% = +++)

substance: 129 (GLLDGGVDILL; listed as Homo sapiens) [compound 129]
measured_value: ″+++″ (≧50% = +++)

substance: 97 (SLINGSFLV; listed as Homo sapiens) [compound 97]
measured_value: ″+++″ (≧50% = +++)

substance: 29 (KMLGIPISNILMV; listed as Homo sapiens) [compound 29]
measured_value: ″+++″ (≧50% = +++)

substance: 194 (ALPLFVITV; listed as Homo sapiens) [compound 194]
measured_value: ″+++″ (≧50% = +++)

substance: 161 (ALLEGVNTV; listed as Homo sapiens) [compound 161]
measured_value: ″+++″ (≧50% = +++)

substance: 222 (NLIENVQRL; listed as Homo sapiens) [compound 222]
measured_value: ″++″ (≧20% = ++)

substance: 223 (ALLENIALYL; listed as Homo sapiens) [compound 223]
measured_value: ″+++″ (≧50% = +++)

substance: 472 (KLLEVSDDPQV; listed as Homo sapiens) [compound 472]
measured_value: ″+++″ (≧50% = +++)

substance: 603 (FLIEPEHVNTV; listed as Homo sapiens) [compound 603]
measured_value: ″++″ (≧20% = ++)

substance: 560 (ALWDIETGQQTTT; listed as Homo sapiens) [compound 560]
measured_value: ″+++″ (≧50% = +++)

substance: 269 (RVLEVGALQAV; listed as Homo sapiens) [compound 269]
measured_value: ″++″ (≧20% = ++)

substance: 198 (KTINKVPTV; listed as Homo sapiens) [compound 198]
measured_value: ″+++″ (≧50% = +++)

substance: 26 (ALLELAEEL; listed as Homo sapiens) [compound 26]
measured_value: ″+++″ (≧50% = +++)

substance: 127 (KIGDEPPKV; listed as Homo sapiens) [compound 127]
measured_value: ″++″ (≧20% = ++)

substance: 446 (QLIPALAKV; listed as Homo sapiens) [compound 446]
measured_value: ″+++″ (≧50% = +++)

substance: 20 (RMIEYFIDV; listed as Homo sapiens) [compound 20]
measured_value: ″+++″ (≧50% = +++)

substance: 529 (LLADELITV; listed as Homo sapiens) [compound 529]
measured_value: ″+++″ (≧50% = +++)

substance: 90 (TLLQIIETV; listed as Homo sapiens) [compound 90]
measured_value: ″+++″ (≧50% = +++)

substance: 570 (ALANQIPTV; listed as Homo sapiens) [compound 570]
measured_value: ″++″ (≧20% = ++)

substance: 53 (KMIETDILQKV; listed as Homo sapiens) [compound 53]
measured_value: ″++++″ (≧75% = ++++)

substance: 114 (SLVGEPILQNV; listed as Homo sapiens) [compound 114]
measured_value: ″++″ (≧20% = ++)

substance: 100 (YLLSTNAQL; listed as Homo sapiens) [compound 100]
measured_value: ″++++″ (≧75% = ++++)

substance: 184 (YLMDINGKMWL; listed as Homo sapiens) [compound 184]
measured_value: ″+++″ (≧50% = +++)

substance: 568 (TLYDIAHTPGV; listed as Homo sapiens) [compound 568]
measured_value: ″++++″ (≧75% = ++++)

substance: 503 (SLNHFTHSV; listed as Homo sapiens) [compound 503]
measured_value: ″+++″ (≧50% = +++)

substance: 439 (YLLQEIYGI; listed as Homo sapiens) [compound 439]
measured_value: ″+++″ (≧50% = +++)

substance: 461 (VMFRTPLASV; listed as Homo sapiens) [compound 461]
measured_value: ″++″ (≧20% = ++)

substance: 309 (GLFDGVPTTA; listed as Homo sapiens) [compound 309]
measured_value: ″+++″ (≧50% = +++)

substance: 254 (TLLAFIMEL; listed as Homo sapiens) [compound 254]
measured_value: ″+++″ (≧50% = +++)

substance: 604 (SILDRDDIFV; listed as Homo sapiens) [compound 604]
measured_value: ″+++″ (≧50% = +++)

substance: 272 (ALGNTVPAV; listed as Homo sapiens) [compound 272]
measured_value: ″+++″ (≧50% = +++)

substance: 321 (GLFEDVTQPGILL; listed as Homo sapiens) [compound 321]
measured_value: ″++++″ (≧75% = ++++)

substance: 333 (FLPDANSSV; listed as Homo sapiens) [compound 333]
measured_value: ″++″ (≧20% = ++)
